Biological target: T1, human OT7T175 (metastin receptor) (human, UniProt Q969F8 1-398)
T1 construct: expressed on CHO cells; also called hOT7T175; hOT7T175-expressed CHO cells
T1 sequence (Q969F8 whole entry L364H): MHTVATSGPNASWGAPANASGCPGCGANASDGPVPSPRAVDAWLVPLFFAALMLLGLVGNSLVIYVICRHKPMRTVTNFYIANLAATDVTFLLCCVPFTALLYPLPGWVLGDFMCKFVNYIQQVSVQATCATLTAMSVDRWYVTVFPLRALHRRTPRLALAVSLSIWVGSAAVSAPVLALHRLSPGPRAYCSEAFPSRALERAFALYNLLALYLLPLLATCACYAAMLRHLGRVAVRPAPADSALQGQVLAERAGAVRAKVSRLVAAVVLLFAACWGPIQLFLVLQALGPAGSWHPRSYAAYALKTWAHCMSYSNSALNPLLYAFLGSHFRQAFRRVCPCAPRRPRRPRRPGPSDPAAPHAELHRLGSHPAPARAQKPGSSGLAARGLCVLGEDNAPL
Assay: competition with Cy-5 metastin (40-54) on hOT7T175-CHO cells, FMAT
Starred links: 1 amine or outer side, 2 acyl side, 3 side chain; linkers in the order of their positions; H or OH if unused. Non-standard residues stand in square brackets, D forms with d. Primed or numbered codes have the meaning given here. No end group written: not given here. Trp(For)″ = Trp(CHO), formyl-Trp, O=Cn1cc(C[C@H](N[*:1])C(=O)[*:2])c2ccccc21; Arg(Et)′ = arginine carrying an ethyl group; Arg(Me) = CNC(=N)NCCC[C@H](N)C(=O)O; azaGly = NNC(=O)O
quantity: pIC50
// pIC50 here means minus log10 of the molar concentration (mol/L)

Please review the following examples before continuing.
1. [dY]NSNSFGL[Arg(Me)]F-NH2 (N-terminus assumed; SMILES CNC(=N)NCCC[C@H](NC(=O)[C@H](CC(C)C)NC(=O)CNC(=O)[C@H](Cc1ccccc1)NC(=O)[C@H](CO)NC(=O)[C@H](CC(N)=O)NC(=O)[C@H](CO)NC(=O)[C@H](CC(N)=O)NC(=O)[C@H](N)Cc1ccc(O)cc1)C(=O)N[C@@H](Cc1ccccc1)C(N)=O, also called Compound No. 170) [[D-Tyr1,Ser3,Arg(Me)9]MS10]
6.59
2. YNWNSFGLR[Trp(For)″]-NH2 (also called Compound No. 186) [[Trp(For)10]MS10]
6.34
3. [dY]NWNSFGL[Arg(Me)]F-NH2 (also: bond 6-7 CONH replaced by CH2NH, also called Compound No. 308) [[6Ψ7,CH2NH,D-Tyr1,Arg(Me)9]MS10]
6.46
4. YNDNSFGLRF-NH2 (also called Compound No. 70) [[Asp3]MS10]
6.70
5. [dY]NANSF[azaGly]L[Arg(Me)]F-NH2 (N-terminus assumed; SMILES CNC(=N)NCCC[C@H](NC(=O)[C@H](CC(C)C)NC(=O)NNC(=O)[C@H](Cc1ccccc1)NC(=O)[C@H](CO)NC(=O)[C@H](CC(N)=O)NC(=O)[C@H](C)NC(=O)[C@H](CC(N)=O)NC(=O)[C@H](N)Cc1ccc(O)cc1)C(=O)N[C@@H](Cc1ccccc1)C(N)=O, also called Compound No. 235) [[D-Tyr1,Ala3,AzaGly7,Arg(Me)9]MS10]
7.00

Req: Please give the measured pIC50 for this binder: YNWNSFGL[Arg(Et)′]F-NH2 (also called Compound No. 220) [[Arg(Et)9]MS10]
Resp: 6.48

Req: Request the reported pIC50 associated with [dY]NWASFGL[Arg(Me)]F-NH2 (N-terminus assumed; SMILES CNC(=N)NCCC[C@H](NC(=O)[C@H](CC(C)C)NC(=O)CNC(=O)[C@H](Cc1ccccc1)NC(=O)[C@H](CO)NC(=O)[C@H](C)NC(=O)[C@H](Cc1c[nH]c2ccccc12)NC(=O)[C@H](CC(N)=O)NC(=O)[C@H](N)Cc1ccc(O)cc1)C(=O)N[C@@H](Cc1ccccc1)C(N)=O, also called Compound No. 210) [[D-Tyr1,Ala4,Arg(Me)9]MS10]
Resp: 6.14

Req: Can you look up the measured pIC50 of LNWNSFGLRF-NH2 (also called Compound No. 73) [[Leu1]MS10] for me?
Resp: 6.66

All values here come from patent US20090298765A1.
